# Tested on: A549
# experimental_protocol: Cytotoxicity against human A549 cells assessed as induction of cell death incubated for 2 days by MTT assay
# Assay type: functional, cell-based
# reported_conditions: A549, 48 h
// pIC50 lookup, one value per entry
Convention used: pIC50 is expressed as -log10 of the molar concentration.

CC(=O)OC[C@@]1(C)[C@@H]2CC[C@]3(C)[C@H](C=C[C@]45OC[C@@]6(CCC(C)(C)C[C@H]64)[C@@H](O)C[C@]53C)[C@@]2(C)CC[C@@H]1O[C@@H]1O[C@H](C)[C@H](O)[C@H](O)[C@H]1O = 4.47

// sample CC(=O)OC[C@H]1O[C@@H](O[C@H]2[C@@H](O)[C@@H](C)O[C@@H](O[C@H]3CC[C@@]4(C)[C@@H](CC[C@]5(C)[C@@H]4C=C[C@]46OC[C@@]7(CCC(C)(C)C[C@H]74)[C@H](O)C[C@]65C)[C@]3(C)CO)[C@@H]2O)[C@H](O)[C@@H](O)[C@@H]1O , its pIC50 was 4.82

// sample CC(=O)OC[C@H]1O[C@@H](O[C@H]2[C@@H](O)[C@@H](C)O[C@@H](O[C@H]3CC[C@@]4(C)[C@@H](CC[C@]5(C)[C@@H]4C=C[C@]46OC[C@@]7(CCC(C)(C)C[C@H]74)[C@@H](O)C[C@]65C)[C@]3(C)CO)[C@@H]2O)[C@H](O)[C@@H](O)[C@@H]1O , its pIC50 was 4.45
